System: PANC-1
Assay: Anticancer activity against human PANC-1 cells assessed as reduction in cell viability in nutrient-deprived medium after 24 hrs by WST-8 assay
Format: functional
endpoint: PC50 (µM)
Write it as a number; the unit µM goes unstated.

Solved entries (count: 8):
- compound: "CC(C)[C@@H]1C[C@]2(CC[C@]3(C(C)C)C[C@H]23)OC2=C1C(=O)C(C)(C)C(=O)C2(C)C"
  PC50, µM: 3.9
- compound: "CC1(C)C=C2C(=O)C(C)(C)C(=O)C(C)(C)C2(O)OO1 (stereo unspecified) [ENDOPEROXIDE HORMONE G3]"
  PC50, µM: 32.3
- compound: "CC(C)[C@H]1C[C@]2(CC[C@]3(C(C)C)C[C@H]23)OC2=C1C(=O)C(C)(C)C(=O)C2(C)C"
  PC50, µM: 10
- compound: "CCC(C)[C@H](C1=C(O)C(C)(C)C(=O)C(C)(C)C1=O)c1c(O)c(C(=O)CC(C)C)c(O)c2c1O[C@]1(C)C=C[C@@H](C(C)C)C[C@H]21 (stereo partly specified)"
  PC50, µM: 0.01
- compound: "C=C1CC[C@H]2[C@@H](C(C)C)C3=C(O[C@]2(C)CC[C@@H]2[C@@H]1CC2(C)C)C(C)(C)C(=O)C(C)(C)C3=O"
  PC50, µM: 28.1
- compound: "CC(C)[C@@H]1C=C[C@@]2(C)OC3=C(C(=O)C(C)(C)C(=O)C3(C)C)[C@@H](C(C)C)[C@H]2C1"
  PC50, µM: 5
- compound: "CC(C)=CCCC1=CCC2(C(=O)C(C)(C)C(=O)C(C)(C)C2=O)[C@@H](C(C)C)C1"
  PC50, µM: 0.02
- compound: "COc1ccc(-c2cc(=O)c3c(O)c(C)c(OC)cc3o2)cc1"
  PC50, µM: 6.1

Quote PC50 with test system PANC-1 for CC(C)CC(=O)c1c(O)c([C@H](C2=C(O)C(C)(C)C(=O)C(C)(C)C2=O)C(C)C)c(O)c2c1O[C@]1(C)C=C[C@@H](C(C)C)C[C@H]21 0.065

Quote PC50 with test system PANC-1 for COc1ccc(-c2cc(=O)c3c(O)c(C)c(OC)c(C)c3o2)cc1 1

Quote PC50 with test system PANC-1 for COc1cc([C@H]2c3cc(O)c(OC)cc3C[C@H](C)[C@@H]2C)ccc1O 88.3

Quote PC50 with test system PANC-1 for CC(C)[C@@H]1C=C[C@@]2(C)OC3=C(C(=O)C(C)(C)C(=O)C3(C)C)[C@H](C(C)C)[C@H]2C1 11.7

Quote PC50 with test system PANC-1 for CC(C)[C@@H]1C[C@]2(CC[C@H]3C[C@@H]2C3(C)C)OC2=C1C(=O)C(C)(C)C(=O)C2(C)C 8

Quote PC50 with test system PANC-1 for COc1cc(C[C@H]2C(=O)OC[C@@H]2Cc2ccc(OC)c(OC)c2)ccc1O 0.7

Quote PC50 with test system PANC-1 for CC(C)CC(=O)c1c(O)c2c(c3c1OC1(O)C(C(=O)C(C)(C)C(=O)C1(C)C)[C@@H]3C(C)C)OC1=C(C(=O)C(C)(C)C(=O)C1(C)C)[C@@H]2C(C)C (stereo partly specified) 0.6

Data provenance is ChEMBL document CHEMBL4699445.
